Entry source: patent US9901095B2

system: Green Peach Aphid (Myzus persicae) (MYZUPE); test: Bioassay on Green Peach Aphid (GPA), foliar spray on cabbage seedlings; format: in vivo; settings: 200 ppm spray on cabbage seedlings; live aphids counted after three days; Abbott's correction
result_type: MYZUPE rating (% Control of Mortality)

                                   compound                               target_desc       value
0  CCN(C(=O)CCCl)c1cn(-c2cccnc2)nc1Cl [Compound 2a]  Green Peach Aphid (Myzus persicae) (MYZUPE)  A (80-100)
1  CCN(C(=O)CCSCCC(F)(F)F)c1cn(-c2cccnc2)nc1Cl [Compound 6.2]  Green Peach Aphid (Myzus persicae) (MYZUPE)  A (80-100)
2  CCN(C(=O)CC[S+]([O-])CCC(F)(F)F)c1cn(-c2cccnc2)nc1Cl (stereo not shown) [Compound 7.2]  Green Peach Aphid (Myzus persicae) (MYZUPE)  A (80-100)

* * *

tested on: Sweetpotato Whitefly Crawler (Bemisia tabaci) (BEMITA); experiment: Bioassay on Sweetpotato Whitefly Crawler, foliar spray on cotton plants; format: in vivo; conditions: 200 ppm spray on cotton plants; live nymphs counted after 8-9 days; Abbott's correction
result_type: BEMITA rating (% Control of Mortality)

In [3]: df
Out[3]:
                                   compound                             result_type       value
0  CCN(C(=O)CCSCCC(F)(F)F)c1cn(-c2cccnc2)nc1Cl  BEMITA rating (% Control of Mortality)  A (80-100)
1        CCN(C(=O)CCCl)c1cn(-c2cccnc2)nc1Cl  BEMITA rating (% Control of Mortality)  A (80-100)
2  CCN(C(=O)CC[S+]([O-])CCC(F)(F)F)c1cn(-c2cccnc2)nc1Cl (stereo not shown)  BEMITA rating (% Control of Mortality)  A (80-100)
